# target_or_test_system: STING (Homo sapiens, UniProt Q86WV6)
# Sequence (Q86WV6 whole entry): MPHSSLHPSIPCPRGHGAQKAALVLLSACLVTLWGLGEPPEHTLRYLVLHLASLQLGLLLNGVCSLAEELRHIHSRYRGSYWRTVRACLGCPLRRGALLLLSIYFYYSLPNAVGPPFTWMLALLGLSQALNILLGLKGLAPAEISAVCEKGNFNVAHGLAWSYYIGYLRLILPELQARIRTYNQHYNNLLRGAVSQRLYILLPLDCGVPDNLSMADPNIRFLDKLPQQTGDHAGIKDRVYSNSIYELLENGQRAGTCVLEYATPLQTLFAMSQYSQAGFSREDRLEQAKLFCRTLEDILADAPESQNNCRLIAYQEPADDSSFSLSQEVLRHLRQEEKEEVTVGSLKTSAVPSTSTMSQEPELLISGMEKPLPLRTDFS
# protocol_details: IFN-β secretion from THP1 by STING activation (hIFNβ ELISA)
# Format: cell-based
# condition: THP1 cells; 24 h incubation; IFN-β in supernatant; top dose set according to solubility; read-out: hIFNβ ELISA (EC50)
test_readout: EC50

[in] # query: EC50 of entry CCn1nc(C)cc1C(=O)Nc1nc2cc(C(N)=O)cc(OCCCNC(=O)CN(C)C)c2n1CCC[C@H]1COc2cc(C(N)=O)cc3nc(NC(=O)c4c(F)c(C)nn4CC)n1c23
[out] > 50 µM

[in] # query: EC50 of entry CCn1nc(C)cc1C(=O)Nc1nc2cc(C(N)=O)cc(OCCNC)c2n1CCC[C@H]1COc2cc(C(N)=O)cc3nc(NC(=O)c4cc(C)nn4CC)n1c23
[out] > 17.9 µM

[in] # query: EC50 of entry CCn1nc(C)cc1C(=O)Nc1nc2cc(C(N)=O)cc(OCCCNC(=O)CN3CC(COC)C3)c2n1CCC[C@H]1COc2cc(C(N)=O)cc3nc(NC(=O)c4cc(C)nn4CC)n1c23
[out] 8.8 µM
